target: bovine serum albumin (BSA) (bovine) (UniProt P02769); assay: EIA, BSA background
Sequence (P02769 25-607 limits assumed): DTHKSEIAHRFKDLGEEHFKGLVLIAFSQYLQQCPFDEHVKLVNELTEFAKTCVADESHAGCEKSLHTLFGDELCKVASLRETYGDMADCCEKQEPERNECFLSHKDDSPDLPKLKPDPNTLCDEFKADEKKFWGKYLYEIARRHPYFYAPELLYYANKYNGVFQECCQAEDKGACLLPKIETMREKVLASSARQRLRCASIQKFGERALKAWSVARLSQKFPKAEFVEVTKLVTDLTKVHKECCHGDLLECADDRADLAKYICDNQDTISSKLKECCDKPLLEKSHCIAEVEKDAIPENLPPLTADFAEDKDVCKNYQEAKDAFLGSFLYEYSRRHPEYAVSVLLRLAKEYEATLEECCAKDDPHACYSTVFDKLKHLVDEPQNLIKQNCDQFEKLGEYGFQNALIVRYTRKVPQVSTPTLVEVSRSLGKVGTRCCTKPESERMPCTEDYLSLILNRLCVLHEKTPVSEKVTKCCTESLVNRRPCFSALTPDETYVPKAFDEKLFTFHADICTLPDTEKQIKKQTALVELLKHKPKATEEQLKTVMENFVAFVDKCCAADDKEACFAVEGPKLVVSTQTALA
Measurement Name: OD (A492) (OD)
One number for each entry, in OD.

| Binder | Units | OD (A492) |
| --- | --- | --- |
| HCV 208B-826 (antibody, V domains shown) VH: DVQLVESGGGLVQAGGSRKLSCAASGFPFSSFGMHWVRQAPEKGLEWVASISSRTSKIYYADNLKGRFTISRDNPKNTLFLQMTSLGSEDTAMYYCVRSVFGNSYWFFDVWGAGTTVTVSS VL: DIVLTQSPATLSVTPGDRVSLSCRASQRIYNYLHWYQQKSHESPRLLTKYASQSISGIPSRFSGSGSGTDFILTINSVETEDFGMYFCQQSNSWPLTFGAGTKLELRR | OD | 0.41 |

Entry under review: HCV 208B-515 (antibody, V domains shown) VH: QVQLQQPGAELVKPGASLKLSCRASGYTFTSYWIHWVKQRPGQGLEWIGEIDPSDSYTNYNQKFKGKATLTVDKSSRAAYMQLSSLTSEDSAVYYCARHYYGVFDSWGQGTKLTVSS VL: QIVFTQYPAIMSASLGERVTMTCTASSSVTSSYLHWFQQKPGSSPKLWIYSTSNPGSGVPARFSGRGSGTSYSLSISSMEAEDAATYYCLQFHRSPWTFGGGTKLEIRR . Reported OD (A492)?
0.08
